Target: α-glucosidase from Saccharomyces cerevisiae (Saccharomyces cerevisiae)
Sequence (P53341 whole entry): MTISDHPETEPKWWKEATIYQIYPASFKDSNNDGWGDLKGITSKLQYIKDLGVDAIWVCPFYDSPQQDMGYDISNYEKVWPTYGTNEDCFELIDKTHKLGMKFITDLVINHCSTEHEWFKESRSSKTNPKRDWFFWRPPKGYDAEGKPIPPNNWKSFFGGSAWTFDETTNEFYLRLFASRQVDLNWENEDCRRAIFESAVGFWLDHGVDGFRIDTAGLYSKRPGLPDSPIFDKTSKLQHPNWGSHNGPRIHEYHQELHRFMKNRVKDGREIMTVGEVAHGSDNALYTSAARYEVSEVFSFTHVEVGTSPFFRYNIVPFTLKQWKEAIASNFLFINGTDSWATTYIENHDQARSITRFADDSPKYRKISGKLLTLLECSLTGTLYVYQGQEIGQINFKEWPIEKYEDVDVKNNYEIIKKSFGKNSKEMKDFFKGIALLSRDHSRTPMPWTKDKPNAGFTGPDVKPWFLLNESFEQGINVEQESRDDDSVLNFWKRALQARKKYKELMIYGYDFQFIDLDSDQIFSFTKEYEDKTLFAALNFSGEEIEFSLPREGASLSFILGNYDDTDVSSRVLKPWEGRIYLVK
Assay: In vitro α-glucosidase inhibition (p-NPG substrate);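 further: yeast α-glucosidase at 0.2 U/mL with p-nitrophenyl α-D-glucopyranoside substrate in 100 mM potassium phosphate pH 6.8, product read by absorbance at 410 nm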
Conditions: read-out: α-Glucosidase Inhibition (%)
PROPERTY: inhibition at 256 µg/mL (%)
Entry rule: numbers only, all in %.

Inquiry: # lookup: inhibition at 256 µg/mL of O=c1c(-c2ccc(O)cc2)coc2cc(O[C@@H]3O[C@H](CO)[C@@H](O)[C@H](O)[C@H]3O)ccc12
Reply text: 22

Inquiry: Requested field: inhibition at 256 µg/mL. Item: C[C@H]1O[C@H](O[C@H]2[C@H](O)[C@@H](O)[C@@H](O[C@H]3[C@H](O)[C@@H](O)C(O)O[C@@H]3CO)O[C@@H]2CO)[C@H](O)[C@@H](O)[C@@H]1N[C@H]1C=C(CO)[C@@H](O)[C@H](O)[C@H]1O (some centres unmarked) [acarbose, reference compound]
Reply text: 72

Inquiry: Requested field: inhibition at 256 µg/mL. Item: COc1ccc2c(c1)OC[C@H]1c3cc4c(cc3O[C@@H]21)OCO4
Reply text: 25

Inquiry: Sample C[C@@H]1CC[C@]2(C(=O)O[C@@H]3O[C@H](CO)[C@@H](O)[C@H](O)[C@H]3O)CC[C@]3(C)C(=CC[C@@H]4[C@@]5(C)CC[C@H](O)[C@@](C)(CO)[C@@H]5CC[C@]43C)[C@@H]2[C@]1(C)O [Compound 3, pedunculoside] — what was its inhibition at 256 µg/mL?
Reply text: 60.5

Inquiry: Can you share its inhibition at 256 µg/mL? I mean this molecule: C[C@@H]1CC[C@]2(C(=O)O)CC[C@]3(C)C(=CC[C@@H]4[C@@]5(C)CC[C@H](O)[C@@](C)(CO)[C@@H]5CC[C@]43C)[C@@H]2[C@]1(C)O
Reply text: 33
